Values compiled from the supplement of paper PMC10567573.

Exercise: state measured protein stability index for each of the variants provided.
B1: MGC27345 (parent)
chain: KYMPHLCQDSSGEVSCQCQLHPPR

- Variants of: B1
- assay-protocol: protein stability index of a GFP-peptide fusion (GPS, HEK-293T) (PSI 1-6); higher = more stable;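 note: lentivirally expressed fusions sorted by FACS into six bins by GFP to DsRed ratio, PSI derived from sequencing read proportions per bin multiplied by bin number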
- condition-label: c terminus: a fixed tail appended

- S10L: 1.57
- Q17N: 1.47
- K1E: 2.06
- P22F: 2.41
- L6Y: 1.96

Report protein stability index for each item below.
1. C18E
2. K1G
3. E13Y
4. S11I

Outgoing:
1. 3.62
2. 2.25
3. 1.54
4. 1.71

Report protein stability index for each item below.
1. E13N
2. C18V
3. M3Y
4. Q17R

Outgoing:
1.75
3.48
2.22
2.35

Report protein stability index for each item below.
1. D9I
2. Q19A
3. C18I
4. S10G
5. C16E
6. Q19W
7. S10F
8. M3W

Outgoing:
[1.51, 2.45, 3.34, 2.08, 4.02, 2.48, 2.65, 1.99]

Incoming: Need protein stability index, item R24M
Outgoing: 3.31
